- assayed target: Voltage-dependent L-type calcium channel subunit alpha-1D (Rattus norvegicus, UniProt P27732)
- Sequence (P27732 whole entry): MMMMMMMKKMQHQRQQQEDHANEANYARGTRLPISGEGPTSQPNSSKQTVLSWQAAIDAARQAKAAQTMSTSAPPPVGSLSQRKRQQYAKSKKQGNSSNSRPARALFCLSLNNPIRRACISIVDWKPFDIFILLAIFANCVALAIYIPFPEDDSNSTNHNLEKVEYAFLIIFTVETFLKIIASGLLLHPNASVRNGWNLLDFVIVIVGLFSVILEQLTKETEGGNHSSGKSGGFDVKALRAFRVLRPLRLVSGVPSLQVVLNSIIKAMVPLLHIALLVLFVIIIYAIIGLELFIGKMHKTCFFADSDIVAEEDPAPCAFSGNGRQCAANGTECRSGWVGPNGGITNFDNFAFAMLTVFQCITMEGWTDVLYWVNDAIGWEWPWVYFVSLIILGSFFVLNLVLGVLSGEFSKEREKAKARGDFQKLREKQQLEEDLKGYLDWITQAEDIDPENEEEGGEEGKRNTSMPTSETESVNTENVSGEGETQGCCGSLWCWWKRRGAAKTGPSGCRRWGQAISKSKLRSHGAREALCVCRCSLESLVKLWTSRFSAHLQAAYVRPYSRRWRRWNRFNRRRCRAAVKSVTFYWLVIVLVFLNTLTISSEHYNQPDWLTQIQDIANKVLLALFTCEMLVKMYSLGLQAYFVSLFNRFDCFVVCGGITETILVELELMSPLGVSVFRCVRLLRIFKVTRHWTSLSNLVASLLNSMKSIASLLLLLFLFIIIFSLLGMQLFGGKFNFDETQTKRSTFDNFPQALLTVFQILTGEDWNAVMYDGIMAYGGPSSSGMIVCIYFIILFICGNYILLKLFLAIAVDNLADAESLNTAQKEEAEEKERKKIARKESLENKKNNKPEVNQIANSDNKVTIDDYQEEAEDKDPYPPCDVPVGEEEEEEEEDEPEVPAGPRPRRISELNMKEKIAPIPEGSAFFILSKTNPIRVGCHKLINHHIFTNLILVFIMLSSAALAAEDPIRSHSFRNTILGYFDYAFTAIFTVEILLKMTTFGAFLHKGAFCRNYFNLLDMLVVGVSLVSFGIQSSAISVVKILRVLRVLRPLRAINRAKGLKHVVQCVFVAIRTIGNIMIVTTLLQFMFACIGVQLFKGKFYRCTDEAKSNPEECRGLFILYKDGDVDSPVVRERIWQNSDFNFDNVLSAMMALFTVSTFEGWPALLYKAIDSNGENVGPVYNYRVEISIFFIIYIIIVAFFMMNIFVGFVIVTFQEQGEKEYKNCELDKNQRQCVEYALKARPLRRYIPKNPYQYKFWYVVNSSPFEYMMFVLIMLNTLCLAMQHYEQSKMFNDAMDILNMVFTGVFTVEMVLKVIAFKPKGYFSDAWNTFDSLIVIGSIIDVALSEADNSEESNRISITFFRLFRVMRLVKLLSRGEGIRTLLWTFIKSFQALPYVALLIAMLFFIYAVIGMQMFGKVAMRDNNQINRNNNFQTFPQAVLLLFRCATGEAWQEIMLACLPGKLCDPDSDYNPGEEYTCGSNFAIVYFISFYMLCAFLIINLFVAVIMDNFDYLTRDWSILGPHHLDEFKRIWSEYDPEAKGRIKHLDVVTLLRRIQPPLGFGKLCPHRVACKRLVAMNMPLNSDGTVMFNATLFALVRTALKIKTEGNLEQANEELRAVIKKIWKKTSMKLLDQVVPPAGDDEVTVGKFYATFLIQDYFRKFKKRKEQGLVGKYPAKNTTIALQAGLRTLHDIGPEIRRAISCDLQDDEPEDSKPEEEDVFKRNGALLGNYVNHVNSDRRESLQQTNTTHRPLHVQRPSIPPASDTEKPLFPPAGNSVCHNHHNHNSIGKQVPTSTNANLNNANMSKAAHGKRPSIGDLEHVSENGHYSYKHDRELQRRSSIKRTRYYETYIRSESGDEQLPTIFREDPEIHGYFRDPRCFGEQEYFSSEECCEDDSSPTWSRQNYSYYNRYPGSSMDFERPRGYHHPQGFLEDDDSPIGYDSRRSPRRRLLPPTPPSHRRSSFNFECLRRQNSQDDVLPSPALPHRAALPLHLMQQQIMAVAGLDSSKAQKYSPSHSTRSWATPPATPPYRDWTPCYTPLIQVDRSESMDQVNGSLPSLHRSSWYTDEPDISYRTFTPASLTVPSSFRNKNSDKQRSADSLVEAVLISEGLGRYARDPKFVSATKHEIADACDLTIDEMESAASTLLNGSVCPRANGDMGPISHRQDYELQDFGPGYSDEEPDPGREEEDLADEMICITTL
- assay remarks: Antagonist activity at rat Cav1.3 expressed in HEK293 cells assessed as inhibition of voltage pulse-induced calcium current by FLIPR calcium 4 assay
The entries below come with measured IC50 values attached.
Answer format: numeric, nM implied, no suffix.

Reference set (5 entries):
>>> measurement("C=CCOC(=O)C1=C(C)NC(C)=C(C(=O)OC)C1c1cccc([N+](=O)[O-])c1 (stereo not given)")
15
>>> measurement("COC(=O)C1=C(C)NC(C)=C(C(=O)OCc2ccc(-c3ccccc3)cc2)C1c1cccc([N+](=O)[O-])c1 (stereo not given)")
74
>>> measurement("CCOC(=O)C1=C(C)NC(C)=C(C(=O)OCCC#N)[C@@H]1c1cccc([N+](=O)[O-])c1")
137
>>> measurement("CCOC(=O)C1=C(C)NC(COC(=O)c2ccccc2)=C(C(=O)OCC)C1c1cccc([N+](=O)[O-])c1 (stereo not given)")
170
>>> measurement("C=C(C)CCOC(=O)C1=C(C)NC(C)=C(C(=O)OC)C1c1cccc([N+](=O)[O-])c1 (stereo not given)")
47

Identify IC50 associated with the compound CCOC(=O)C1=C(C)NC(C)=C(C(=O)OCc2ccc([N+](=O)[O-])cc2)C1c1cccc([N+](=O)[O-])c1 (stereo not given)
140

Please list IC50 recorded for the compound CCOC(=O)C1=C(C)NC(C)=C(C(=O)OCC)C1c1ccc(F)cc1F
58

Name the recorded IC50 of the compound listed here: COC(=O)C1=C(C)NC(C)=C(C(=O)OCCCCc2ccc(OC)cc2)C1c1cccc([N+](=O)[O-])c1 (stereo not given)
38

Supply recorded IC50 for COC(=O)C1=C(C)NC(C)=C(C(=O)OCc2c(Cl)cc(Cl)cc2Cl)C1c1cccc([N+](=O)[O-])c1 (stereo not given) here.
34

Quick one: give measured IC50 for COC(=O)C1=C(C)NC(C)=C(C(=O)OCc2ccco2)C1c1cccc([N+](=O)[O-])c1 (stereo not given)
15

Specify measured IC50 for COC(=O)C1=C(C)NC(C)=C(C(=O)OC)C1c1ccccc1SC .
35

Output IC50 of CCOC(=O)C1=C(C)NC(C=CC(=O)OC)=C(C(=O)OCC)C1c1cccc([N+](=O)[O-])c1 (mixture of isomers)
213

Using known records, supply IC50 for CCCCCOC(=O)C1=C(C)NC(C)=C(C(=O)OCC)C1c1cccc([N+](=O)[O-])c1 (stereo not given)
130

Hello, please tell me recorded IC50 for this one: CCOC(=O)C1=C(C)NC(COC)=C(C(=O)OC)C1c1cccc([N+](=O)[O-])c1 (stereo not given)
96

Item C=CCOC(=O)C1=C(C)NC(C)=C(C(=O)OCC)C1c1ccc2ccccc2c1 (stereo not given) : provide IC50
2160

# return recorded IC50 for entry CCCC1=C(C(=O)OCC)C(c2cccc([N+](=O)[O-])c2)C(C(=O)OCC)=C(C)N1 (stereo not given)
105

Please indicate IC50 recorded for COC(=O)C1=C(C)NC(C)=C(C(=O)OCc2cccc(F)c2)C1c1cccc([N+](=O)[O-])c1 (stereo not given)
28

For the compound CCOC(=O)C1=C(C)NC(C)=C(C(C)=O)C1c1ccc2ccccc2c1 (stereo not given) , give its measured IC50 value.
2320

Provide measured IC50 value, entry: CCOC(=O)C1=C(C)NC(C)=C(C(=O)OC=O)C1c1cccc([N+](=O)[O-])c1 (stereo not given)
13900

Hello, please tell me recorded IC50 for this one: COC(=O)C1=C(C)NC(C)=C(C(=O)OC2Cc3ccccc3C2)C1c1cccc([N+](=O)[O-])c1 (stereo not given)
43

Recall and state the measured IC50 for CCOC(=O)C1=C(C)NC(CCl)=C(C(=O)OCC)C1c1cccc([N+](=O)[O-])c1 (stereo not given) .
53
